Dear all, I have gathered published pKi values for Cholecystokinin receptor type A (Rattus norvegicus, UniProt P30551); the list follows.
Scale: negative log10 of molar concentration, which is what pKi denotes.

Before answering, review these 2 worked examples.
[
  {
    "compound": "C[C@](Cc1c[nH]c2ccccc12)(NC(=O)OC1C2CC3CC(C2)CC1C3)C(=O)N[C@@H](CC(=O)O)Cc1ccc(N)cc1 (some centres undefined)",
    "target.desc": "Cholecystokinin receptor type A (Rattus norvegicus, UniProt P30551)",
    "measurement.label": "pKi",
    "experimental.value": 6.46
  },
  {
    "compound": "O=C(Nc1ccc(F)cc1)NC1C(=O)N(CCN2CCOCC2)c2ccccc2N(CC23CC4CC(CC(C4)C2)C3)C1=O (single isomer, unassigned; (+))",
    "target.desc": "Cholecystokinin receptor type A (Rattus norvegicus, UniProt P30551)",
    "measurement.label": "pKi",
    "experimental.value": 5.59
  }
]

Please examine the following record next.
Exercise: Respond only with pKi recorded for CC(C)(C)OC(=O)N[C@@H](Cc1c[nH]c2ccccc12)C(=O)N[C@H]1CCCN2C(=O)N(Cc3ccccc3)C(=O)C[C@H]12
Key: 6.24

====

Here we gather Ki data for Cholecystokinin receptor type A (Rattus norvegicus, UniProt P30551) reported by several publications.
Give the value in nM but do not write nM after it.

// known answers, use as guide
[
  {
    "molecule": "CC(C)(C)OC(=O)N[C@@H](Cc1c[nH]c2ccccc12)C(=O)N[C@@H]1CCCN2C(=O)N(Cc3ccccc3)C(=O)C[C@H]12",
    "units.symbol": "nM",
    "Ki": 10.6
  },
  {
    "molecule": "C[C@](Cc1c[nH]c2ccccc12)(NC(=O)OC1C2CC3CC(C2)CC1C3)C(=O)N[C@@H](CC(=O)O)Cc1ccc(N)c(I)c1 (some centres undefined)",
    "units.symbol": "nM",
    "Ki": 158
  },
  {
    "molecule": "CC(Cc1c[nH]c2ccccc12)(C(=O)OC1[C@H]2C[C@@H]3C[C@@H](C[C@H]1C3)C2)C(=O)N(CCc1ccc(Cl)cc1Cl)CC(=O)O (some centres undefined)",
    "units.symbol": "nM",
    "Ki": 1220
  }
]

Could you now look at the following molecule, please?
Exercise: Give the observed Ki of COc1ccc(NC(=O)NC2C(=O)N(CCC(C)C)c3ccccc3N(CCN3CCOCC3)C2=O)c(C)c1 (racemic) for Cholecystokinin receptor type A (Rattus norvegicus, UniProt P30551).
Key: 6610
